molecular target: human GCG receptor (human, UniProt P47871 26-477); test: cell-based or functional assay
Sequence (P47871 26-477): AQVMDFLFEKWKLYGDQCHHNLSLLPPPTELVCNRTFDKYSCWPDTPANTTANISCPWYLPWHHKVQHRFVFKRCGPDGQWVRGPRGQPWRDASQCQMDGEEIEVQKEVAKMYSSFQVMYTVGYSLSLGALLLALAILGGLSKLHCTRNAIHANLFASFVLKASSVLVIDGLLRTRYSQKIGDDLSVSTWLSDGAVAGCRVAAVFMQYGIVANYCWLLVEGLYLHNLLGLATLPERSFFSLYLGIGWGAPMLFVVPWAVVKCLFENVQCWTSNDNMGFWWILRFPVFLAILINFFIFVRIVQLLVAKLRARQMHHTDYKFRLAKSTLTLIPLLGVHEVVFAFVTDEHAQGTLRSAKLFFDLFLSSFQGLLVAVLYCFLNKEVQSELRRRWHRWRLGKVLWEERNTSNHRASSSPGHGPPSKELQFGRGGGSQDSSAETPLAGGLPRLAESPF
Positions of bridges follow the written chain, without caps; N, C: chain ends. Non-standard residues stand in square brackets, D forms with d. No end group written: not given here. *: point of attachment. Acetyl(2-(4-imidazolyl)) = O=C(Cc1c[nH]cn1)*; Aib = CC(C)(N)C(=O)O
Measurement name: In vitro Activity Compared to Native Peptide (%) vs. Glucagon
Write the value in % as a bare number.

Q: // returns reported In vitro Activity Compared to Native Peptide (%) vs. Glucagon for input [Acetyl(2-(4-imidazolyl))][Aib]QGTFTSDYSKYLDEKRQKEFVQWLLNTC (bridge 16-20) [triple agonist of SEQ ID NO: 81]
Result: 0.3

Q: Please answer likewise for H[Aib]QGTFTSDYSKYLDEKACKEFVQWLLAQ (bridge 16-20) [triple agonist of SEQ ID NO: 31]
Result: 2.2

Q: # repeat for H[Aib]QGTFTSDCSKYLDSRAAQDFVQWLLDGGPSSGAPPPS [triple agonist of SEQ ID NO: 26]
Result: 0.2

Q: Item: [Acetyl(2-(4-imidazolyl))][Aib]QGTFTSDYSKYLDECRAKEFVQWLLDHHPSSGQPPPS (bridge 16-20) [triple agonist of SEQ ID NO: 73]
Result: 5.4

Values from patent US20230118307A1
